The reported measurements were obtained from the supplement of paper PMC10567573.

B1: KCNA1 (parent)
chain: LKASMRELGLLIFFLFIGVILFSS

- Variants of: B1
- Protocol Notes: protein stability index of a GFP-peptide fusion (GPS, HEK-293T) (PSI 1-6); higher = more stable;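 also: lentivirally expressed fusions sorted by FACS into six bins by GFP to DsRed ratio, PSI derived from sequencing read proportions per bin multiplied by bin number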
- Assay Conditions: c terminus: a fixed tail appended
The reader will find reported protein stability index values listed item by item below.

>  <Seq>
LKASMRKLGLLIFFLFIGVILFSS [E7K]

>  <protein stability index>
2.21

$$$$
>  <Seq>
LKASMRELGLLIFFLFIGVFLFSS [I20F]

>  <protein stability index>
2.32

$$$$
>  <Seq>
LMASMRELGLLIFFLFIGVILFSS [K2M]

>  <protein stability index>
2.15

$$$$
>  <Seq>
LKASMRELGLGIFFLFIGVILFSS [L11G]

>  <protein stability index>
3.63

$$$$
>  <Seq>
LKASMRELGLLIFFLFIIVILFSS [G18I]

>  <protein stability index>
4.5

$$$$
>  <Seq>
LKASMRELGLLIFFLFIGVILFWS [S23W]

>  <protein stability index>
2.38

$$$$
>  <Seq>
LKASMRELGLLIFFLFIGVILFNS [S23N]

>  <protein stability index>
2.41

$$$$
>  <Seq>
LKASMRELGLLIFMLFIGVILFSS [F14M]

>  <protein stability index>
2.48

$$$$
>  <Seq>
LKASMRELGLLIFFLFRGVILFSS [I17R]

>  <protein stability index>
2.71

$$$$
>  <Seq>
LKASMRELGLLIFFLFIGVDLFSS [I20D]

>  <protein stability index>
3.22

$$$$
>  <Seq>
LKASMRELGLLIFFLFAGVILFSS [I17A]

>  <protein stability index>
2.83

$$$$
>  <Seq>
RKASMRELGLLIFFLFIGVILFSS [L1R]

>  <protein stability index>
1.4

$$$$
>  <Seq>
LKASMRELGLLPFFLFIGVILFSS [I12P]

>  <protein stability index>
1.95

$$$$
>  <Seq>
LKASMRELGLLIFHLFIGVILFSS [F14H]

>  <protein stability index>
3.41

$$$$
>  <Seq>
LKASMREVGLLIFFLFIGVILFSS [L8V]

>  <protein stability index>
2.42

$$$$
>  <Seq>
LKASMRELGLLDFFLFIGVILFSS [I12D]

>  <protein stability index>
2.94

$$$$
>  <Seq>
LKASMRELHLLIFFLFIGVILFSS [G9H]

>  <protein stability index>
1.8

$$$$
